All figures here come from ChEMBL document CHEMBL1131316.

# tested on: UniProtKB P32745
Positions of bridges follow the written chain, without caps; N, C: chain ends. Non-standard residues stand in square brackets, D forms with d. Residues, ends and D or L forms follow the SMILES beside them. dBip = N[C@H](Cc1ccc(-c2ccccc2)cc1)C(=O)O; 2Nal = N[C@@H](Cc1ccc2ccccc2c1)C(=O)O; 3Pal = N[C@@H](Cc1cccnc1)C(=O)O
reported endpoint: IC50 (nM)
Answer format: numeric, nM implied, no suffix.

# annotated cases, reported IC50 shown
molecule=C[C@@H](O)[C@H](NC(=O)[C@@H]1CSSC[C@@H](NC(=O)[C@H](N)Cc2ccccc2)C(=O)N[C@@H](Cc2cccnc2)C(=O)N[C@H](Cc2c[nH]c3ccccc23)C(=O)N[C@@H](CCCCN)C(=O)N[C@@H]([C@@H](C)O)C(=O)N1)C(N)=O reported_endpoint=IC50 measured_result=1360
molecule="CC(C)[C@@H]1NC(=O)[C@H](CCCCN)NC(=O)[C@@H](Cc2c[nH]c3ccccc23)NC(=O)[C@H](Cc2ccc(O)cc2)NC(=O)[C@H](NC(=O)[C@H](N)Cc2ccc(-c3ccccc3)cc2)CSSC[C@@H](C(=O)N[C@@H](Cc2ccc3ccccc3c2)C(N)=O)NC1=O (H-[dBip][dC]Y[dW]KVC[2Nal]-NH2; disulfide 2-7)" reported_endpoint=IC50 measured_result=466

Here's the next entry for you.
// assay UniProtKB P32745, entry CC(C)[C@@H]1NC(=O)[C@H](CCCCN)NC(=O)[C@@H](Cc2c[nH]c3ccccc23)NC(=O)[C@H](Cc2cccnc2)NC(=O)[C@H](NC(=O)[C@@H](N)Cc2ccc3ccccc3c2)CSSC[C@@H](C(=O)N[C@@H](Cc2ccc3ccccc3c2)C(N)=O)NC1=O (H-[2Nal][dC][3Pal][dW]KVC[2Nal]-NH2; disulfide 2-7) , IC50 value = 171

====

Parameter IC50: see the listing below.
# tested on: Somatostatin receptor
# assay explanation: Compound was tested for in vitro SRIF inhibition of GH release in rats
# Type: functional
Non-standard residues stand in square brackets, D forms with d. Residues, ends and D or L forms follow the SMILES beside them. dPhe(4-Cl) = N[C@H](Cc1ccc(Cl)cc1)C(=O)O; 2Nal = N[C@@H](Cc1ccc2ccccc2c1)C(=O)O
Answer format: numeric, nM implied, no suffix.

compound=C[C@@H](O)[C@H](NC(=O)[C@@H]1CSSC[C@@H](NC(=O)[C@@H](N)Cc2ccccc2)C(=O)N[C@@H](Cc2cccnc2)C(=O)N[C@H](Cc2c[nH]c3ccccc23)C(=O)N[C@@H](CCCCN)C(=O)N[C@@H]([C@@H](C)O)C(=O)N1)C(N)=O measured_result=905

The measured IC50 associated with CC(C)[C@H](NC(=O)[C@H](CCCCN)NC(=O)[C@@H](Cc1c[nH]c2ccccc12)NC(=O)[C@H](Cc1ccc(O)cc1)NC(=O)[C@@H](Cc1ccc(Cl)cc1)NC(=O)[C@@H](N)Cc1ccc2ccccc2c1)C(=O)N[C@@H](Cc1ccccc1)C(=O)N[C@H](C(N)=O)[C@@H](C)O (H-[2Nal][dPhe(4-Cl)]Y[dW]KVFT-NH2) reads 3030

The measured IC50 associated with `CC(C)[C@@H]1NC(=O)[C@H](CCCCN)NC(=O)[C@@H](Cc2c[nH]c3ccccc23)NC(=O)[C@H](Cc2cccnc2)NC(=O)[C@H](NC(=O)[C@@H](N)Cc2ccc3ccccc3c2)CSSC[C@@H](C(=O)N[C@@H](Cc2cccc(-c3ccccc3)c2)C(N)=O)NC1=O` reads 56

The measured IC50 associated with `CC(C)[C@@H]1NC(=O)[C@H](CCCCN)NC(=O)[C@@H](Cc2c[nH]c3ccccc23)NC(=O)[C@H](Cc2ccc(O)cc2)NC(=O)[C@H](NC(=O)[C@@H](N)Cc2ccc(O)cc2)CSSC[C@@H](C(=O)N[C@H](Cc2ccc3ccccc3c2)C(N)=O)NC1=O` reads 64.8

====

Positions of bridges follow the written chain, without caps; N, C: chain ends. Non-standard residues stand in square brackets, D forms with d. Residues, ends and D or L forms follow the SMILES beside them. dDip = N[C@@H](C(=O)O)C(c1ccccc1)c1ccccc1; dPhe(4-Cl) = N[C@H](Cc1ccc(Cl)cc1)C(=O)O; 2Nal = N[C@@H](Cc1ccc2ccccc2c1)C(=O)O
For Somatostatin receptor type 3 (Homo sapiens), measured pIC50 is reported for the entries below.
Quick note: pIC50 values are minus log10 of concentrations in mol/L.

# annotated cases, reported pIC50 shown
compound="CC(C)[C@H](NC(=O)[C@H](CCCCN)NC(=O)[C@@H](Cc1c[nH]c2ccccc12)NC(=O)[C@H](Cc1ccc(O)cc1)NC(=O)[C@@H](Cc1ccc(Cl)cc1)NC(=O)[C@@H](N)Cc1ccc2ccccc2c1)C(=O)N[C@@H](Cc1ccccc1)C(=O)N[C@H](C(N)=O)[C@@H](C)O (H-[2Nal][dPhe(4-Cl)]Y[dW]KVFT-NH2)" measured_result=5.95
compound="CC(=O)N[C@@H](Cc1ccc2ccccc2c1)C(=O)N[C@@H]1CSSC[C@@H](C(=O)N[C@@H](Cc2ccc3ccccc3c2)C(N)=O)NC(=O)[C@H](C(C)C)NC(=O)[C@H](CCCCN)NC(=O)[C@@H](Cc2c[nH]c3ccccc23)NC(=O)[C@H](Cc2ccc(O)cc2)NC1=O (Ac-[2Nal][dC]Y[dW]KVC[2Nal]-NH2; disulfide 2-7)" measured_result=6.84
compound="CC(C)[C@@H]1NC(=O)[C@H](CCCCN)NC(=O)[C@@H](Cc2c[nH]c3ccccc23)NC(=O)[C@H](Cc2c[nH]cn2)NC(=O)[C@H](NC(=O)[C@@H](N)Cc2ccc3ccccc3c2)CSSC[C@@H](C(=O)N[C@@H](C(N)=O)C(c2ccccc2)c2ccccc2)NC1=O (H-[2Nal][dC]H[dW]KVC[dDip]-NH2; disulfide 2-7)" measured_result=5.92

Here's the next entry for you.
// assay Somatostatin receptor type 3 (Homo sapiens), entry `C[C@@H](O)[C@H](NC(=O)[C@@H]1CSSC[C@@H](NC(=O)[C@@H](N)Cc2ccc(O)cc2)C(=O)N[C@@H](Cc2cccnc2)C(=O)N[C@H](Cc2c[nH]c3ccccc23)C(=O)N[C@@H](CCCCN)C(=O)N[C@@H]([C@@H](C)O)C(=O)N1)C(N)=O` , pIC50 value = 5.86

====

Parameter log10(Ki): see the listing below.
# tested on: UniProt P30874
# Sequence (P30874 whole entry): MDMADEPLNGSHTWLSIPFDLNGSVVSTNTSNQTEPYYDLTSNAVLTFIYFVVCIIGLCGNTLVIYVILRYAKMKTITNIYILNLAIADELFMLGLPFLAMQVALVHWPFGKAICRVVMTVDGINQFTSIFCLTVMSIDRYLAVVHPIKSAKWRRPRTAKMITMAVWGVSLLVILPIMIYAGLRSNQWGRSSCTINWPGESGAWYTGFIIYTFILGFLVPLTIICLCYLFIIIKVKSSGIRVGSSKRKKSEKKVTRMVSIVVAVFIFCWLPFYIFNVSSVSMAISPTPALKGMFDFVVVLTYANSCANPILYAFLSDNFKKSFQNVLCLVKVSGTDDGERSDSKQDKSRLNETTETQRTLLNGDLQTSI
Positions of bridges follow the written chain, without caps; N, C: chain ends. Non-standard residues stand in square brackets, D forms with d. Residues, ends and D or L forms follow the SMILES beside them. Phe(4-NO2) = N[C@@H](Cc1ccc([N+](=O)[O-])cc1)C(=O)O; dBip = N[C@H](Cc1ccc(-c2ccccc2)cc1)C(=O)O; 2Nal = N[C@@H](Cc1ccc2ccccc2c1)C(=O)O; 3Pal = N[C@@H](Cc1cccnc1)C(=O)O
Form field - Quantity: Ki; Unit: nM; Scale: log10

molecule="CC(C)[C@@H]1NC(=O)[C@H](CCCCN)NC(=O)[C@@H](Cc2c[nH]c3ccccc23)NC(=O)[C@H](Cc2cccnc2)NC(=O)[C@H](NC(=O)[C@@H](N)Cc2ccc3ccccc3c2)CSSC[C@@H](C(=O)N[C@@H](Cc2ccc3ccccc3c2)C(N)=O)NC1=O (H-[2Nal][dC][3Pal][dW]KVC[2Nal]-NH2; disulfide 2-7)" measured_result=1.88
molecule=CC(C)NC(=O)[C@@H]1CSSC[C@@H](NC(=O)[C@@H](N)Cc2ccc3ccccc3c2)C(=O)N[C@@H](Cc2ccc(O)cc2)C(=O)N[C@H](Cc2c[nH]c3ccccc23)C(=O)N[C@@H](CCCCN)C(=O)N[C@@H](C(C)C)C(=O)N1 measured_result=2.64
molecule=CC(=O)N[C@@H]1CSSC[C@@H](C(=O)N[C@H](C(N)=O)[C@@H](C)O)NC(=O)[C@H](C(C)C)NC(=O)[C@H](CCCCN)NC(=O)[C@@H](Cc2c[nH]c3ccccc23)NC(=O)[C@H](Cc2ccc(O)cc2)NC1=O measured_result=3.00
molecule="CC(=O)N[C@@H](Cc1ccc2ccccc2c1)C(=O)N[C@@H]1CSSC[C@@H](C(=O)N[C@@H](Cc2ccc3ccccc3c2)C(N)=O)NC(=O)[C@H](C(C)C)NC(=O)[C@H](CCCCN)NC(=O)[C@@H](Cc2c[nH]c3ccccc23)NC(=O)[C@H](Cc2ccc(O)cc2)NC1=O (Ac-[2Nal][dC]Y[dW]KVC[2Nal]-NH2; disulfide 2-7)" measured_result=1.68
molecule="CC(C)[C@@H]1NC(=O)[C@H](CCCCN)NC(=O)[C@@H](Cc2c[nH]c3ccccc23)NC(=O)[C@H](Cc2cccnc2)NC(=O)[C@H](NC(=O)[C@@H](N)Cc2ccc([N+](=O)[O-])cc2)CSSC[C@@H](C(=O)N[C@@H](Cc2ccc(O)cc2)C(N)=O)NC1=O (H-[Phe(4-NO2)][dC][3Pal][dW]KVCY-NH2; disulfide 2-7)" measured_result=1.55
molecule="CC(C)[C@@H]1NC(=O)[C@H](CCCCN)NC(=O)[C@@H](Cc2c[nH]c3ccccc23)NC(=O)[C@H](Cc2c[nH]cn2)NC(=O)[C@H](NC(=O)[C@@H](N)Cc2ccc3ccccc3c2)CSSC[C@@H](C(=O)N[C@@H](Cc2ccc3ccccc3c2)C(N)=O)NC1=O (H-[2Nal][dC]H[dW]KVC[2Nal]-NH2; disulfide 2-7)" measured_result=1.92

The measured log10(Ki) associated with `CC(C)[C@@H]1NC(=O)[C@H](CCCCN)NC(=O)[C@@H](Cc2c[nH]c3ccccc23)NC(=O)[C@H](Cc2ccc(O)cc2)NC(=O)[C@@H](NC(=O)[C@H](N)Cc2ccc3ccccc3c2)CSSC[C@H](C(=O)N[C@H](C(N)=O)[C@@H](C)O)NC1=O` reads 2.54

The measured log10(Ki) associated with `C[C@@H](O)[C@H](NC(=O)[C@@H]1CSSC[C@@H](NC(=O)[C@@H](N)Cc2ccc(O)cc2)C(=O)N[C@@H](Cc2cccnc2)C(=O)N[C@H](Cc2c[nH]c3ccccc23)C(=O)N[C@@H](CCCCN)C(=O)N[C@@H]([C@@H](C)O)C(=O)N1)C(N)=O` reads 3.00

The measured log10(Ki) associated with CC(C)[C@@H]1NC(=O)[C@H](CCCCN)NC(=O)[C@@H](Cc2c[nH]c3ccccc23)NC(=O)[C@H](Cc2ccc(O)cc2)NC(=O)[C@H](NC(=O)[C@H](N)Cc2ccc(-c3ccccc3)cc2)CSSC[C@@H](C(=O)N[C@@H](Cc2ccc3ccccc3c2)C(N)=O)NC1=O (H-[dBip][dC]Y[dW]KVC[2Nal]-NH2; disulfide 2-7) reads 2.90

The measured log10(Ki) associated with `C[C@@H](O)[C@H](NC(=O)[C@@H]1CSSC[C@@H](NC(=O)[C@@H](N)Cc2ccccc2)C(=O)N[C@@H](Cc2cccnc2)C(=O)N[C@H](Cc2c[nH]c3ccccc23)C(=O)N[C@@H](CCCCN)C(=O)N[C@@H]([C@@H](C)O)C(=O)N1)C(N)=O` reads 2.46
